Here the recorded GI50 is given for each entry.
- Test system: CCRF-CEM leukemia
- MEASUREMENT_DESCRIPTION: NCI tumour cell line growth inhibition, 48 h

Ask: Tell me reported GI50 for `Cc1nc2sccn2c(=O)c1CCN1CCC(=C(c2ccc(F)cc2)c2ccc(F)cc2)CC1` , tested with CCRF-CEM leukemia.
Result: 559 nM

Ask: Can you handle `CN(C)c1ccc(N=Cc2c([O-])ccc3ccccc23)cc1.[C-]#[O+].[C-]#[O+].[Ir]` next?
Result: 4760 nM

Ask: Try CS(=O)CCCCCN=C=S (centres undefined) next.
Result: 4100 nM

Ask: Now this one: CN(C)c1ccc(C(=C2C=CC(=[N+](C)C)C=C2)c2ccc(N(C)C)cc2)cc1 (tested in a mixture with another compound)
Result: 231 nM

Ask: Moving on to the next compound: `OCCCN=NNc1ccc(-c2nc3ccccc3[nH]2)cc1`
Result: 644 nM

Ask: `C=C1C[C@](OC)([C@H](O)C(=O)N[C@@H](OC)[C@@H]2C[C@@H](O)C(C)(C)[C@@H](C[C@@H](COC)OC)O2)O[C@H](C)[C@@H]1C` , same question.
Result: 16.8 nM

Ask: // next record NC(CSC(c1ccccc1)(c1ccccc1)c1ccc(Cl)cc1)C(=O)O (centres undefined)
Result: 386 nM

Ask: Now this one: `CCN(CC)c1cc(/C=C/c2ccc(OC)c(OC)c2)nc2cc(F)c(F)cc12`
Result: 3180 nM

Ask: Same read-out for `COc1ccc(NC(=O)n2nc(N)c3ccccc32)cc1OC` ?
Result: 36700 nM

====

Overview of reported GI50 across a group of molecules:
- Tested on: CAKI-1 renal
- MEASUREMENT_DESCRIPTION: NCI tumour cell line growth inhibition, 48 h

Ask: Hi! What's the reported GI50 for `O=C1C(Br)=CC2(C=C1Br)CCN=c1c2c(O)c2nc3ccccc3c3ccnc1c23` on CAKI-1 renal?
Result: 1.01 µM

Ask: Now give it for `CC(C)[C@@]12C[C@@H](OC(=O)[C@H]3CO3)[C@@](C)(O1)[C@@H]1CC[C@@H](C)[C@H]1[C@@H]2OC(=O)/C=C/c1ccccc1` too.
Result: 6.83 µM

Ask: What do we get for `O=C(OCc1ccccc1)N1CCN(/[N+]([O-])=N/Oc2ccc([N+](=O)[O-])cc2[N+](=O)[O-])CC1` ?
Result: 4.8 µM

====

- Tested on: T-47D breast
- MEASUREMENT_DESCRIPTION: NCI tumour cell line growth inhibition, 48 h
Decision: TGI compared against 20 µM; not below it gives condition met, below it gives condition not met.

Before answering, review these 10 worked examples.
* CC(C)NC(=O)CN1CCN(C2=CC(=O)c3c(O)ccc(O)c3C2=O)CC1 | condition met
* CC[C@H]1CN2CCc3cc(OC)c(OC)cc3[C@@H]2C[C@@H]1C[C@H]1NCCc2cc(O)c(OC)cc21 | condition not met
* CN(NC(=O)CCCl)C1=NCCN1 | condition met
* N#CCCN(CCC#N)c1ccc(C(N=Nc2ccccc2)=Nc2ccccc2)cc1 | condition met
* COc1cc(/C=C/c2cc(/C=C/c3ccc(O)c(OC)c3)n(-c3c(C)cccc3C)c(=O)n2)ccc1O | condition not met
* COc1ccc(N2C(=O)C3ON(C(C(N)=O)c4ccccc4)C(c4ccc(-c5ccccc5)cc4)C3C2=O)cc1 (centres undefined) | condition met
* CCC(C)n1cc(C)c2c(C(=O)NCc3c(C)cc(C)[nH]c3=O)cc(Br)cc21 (centres undefined) | condition met
* CC(C)C1OC(=O)C=C1Sc1ccccc1 (centres undefined) | condition met
* CC1=C2c3c(C)ccc4ccc(C)c(c34)C2(O)C(C)C1=O (centres undefined) | condition met
* CCOC(=O)c1sc2nc3sc(N=Nc4ccc(Cl)cc4)c(O)n3c(=S)c2c1C | condition met

Ask: Kindly determine if TGI recorded for `Nc1c(-c2nc3ccccc3s2)c2ccc([N+](=O)[O-])cc2c(=O)n1-c1cccc(C(=O)O)c1` is above or exactly 20 µM.
Result: condition met

Ask: Queued: CCSCC(N)C(=O)O (centres undefined)
Result: condition met

Ask: Next: COC(=O)C1(Cc2ccc3c(c2)CCC3)Cc2ccc3c(c2C1O)CCC3 (centres undefined)
Result: condition met

Ask: Same thing, different molecule: `Cc1c(CCOC=O)c(=O)[nH]c2nncn12`
Result: condition met

Ask: How about this molecule: `NC(N)=NS(=O)(=O)c1ccc(NCc2c3ccccc3nc3ccccc23)cc1`
Result: condition met

Ask: Further, for `O=C1CCC[C@]2(CCC[C@@H](O)C2)N1` ?
Result: condition met

Ask: Another: `O=c1[nH]c(Nc2cccc(C(F)(F)F)c2)nc2nc[nH]c12`
Result: condition met

====

Parameter: TGI. Scope: all listed entries.
- System: KM12 colon
- MEASUREMENT_DESCRIPTION: NCI tumour cell line growth inhibition, 48 h

* CC(=O)C(=[N+]=[N-])C(=O)OC(C)(C)C#N | > 10 µM

Ask: Can you share its TGI? I mean this compound: CC1(C2(C)OC(=O)c3ccccc32)OC(=O)c2ccccc21 (stereo not given)
Result: > 100 µM

Ask: One more compound: COCC1OC(OC2C3=C(C(C)C)CCC3(C)/C=C3\C(CCC3(O)COC)C(C)C2O)C(O)C2OC3OC12OC3(C)C1CO1 (stereo not given)
Result: > 100 µM

Ask: Try the compound `CC(=O)O/N=C/c1ncccc1OC(C)=O`
Result: > 100 µM

Ask: And then CC(=O)OC1CC(n2cc(F)c(=O)[nH]c2=O)OC1CO (stereo not given) , what is it?
Result: > 100 µM

Ask: Repeat with `CC1(C)N=C(C(N)=O)c2ncn(-c3ccccc3)c2N1`
Result: > 100 µM

Ask: Then this compound: Cc1cn(C2CCC(/C=N\O)O2)c(=O)[nH]c1=O (stereo not given)
Result: > 100 µM

====

- Test system: RXF-631 renal
- MEASUREMENT_DESCRIPTION: NCI tumour cell line growth inhibition, 48 h
Below, each entry is listed with its recorded TGI.

Ask: TGI lookup needed for `CCCn1c(SCC)c2ccccc2c1-c1nc(F)nc(F)n1` , thanks.
Result: > 100 µM

Ask: Repeat with `Cc1ccc(NC(=O)c2cccc([N+](=O)[O-])c2O)c([N+](=O)[O-])c1`
Result: 26.9 µM

Ask: Now give it for `NC(N)=NS(=O)(=O)c1ccc(NCc2c3ccccc3nc3ccccc23)cc1` too.
Result: > 70.1 µM

Ask: CCCN(CCCC(NC(C)=O)C(=O)NCc1ccccc1)C(=O)NC (centres undefined) ?
Result: > 100 µM

====

- Test system: SNB-75 CNS
- MEASUREMENT_DESCRIPTION: NCI tumour cell line growth inhibition, 48 h
Below, each of the compounds is paired with its reported TGI value.

Use these answered entries as a reference point.
- O=C(CO)CC(=O)C(=O)Nc1nc([N+](=O)[O-])cs1: > 100 µM
- CSc1nc(-c2cc3c(c(SC)n2)CCCCC3)cc2c1CCCCC2: > 100 µM
- CC(N)C(C)Cc1ccccc1 (stereo not drawn): > 100 µM
- CC1(C23CC4CC(CC(C4)C2)C3)n2c(=O)n(-c3ccccc3)c(=O)n2C1(C)C12CC3CC(CC(C3)C1)C2 (stereo not drawn): > 100 µM

Ask: Item COC(OC)c1cccc2c1C(=O)CCC1(O)c3ccccc3C1C2 (stereo not drawn) with SNB-75 CNS - TGI?
Result: > 100 µM

Ask: Another: `C[C@H](Nc1c(O)c2c(c(O)c1Cl)C(=O)C=CC2=O)C(=O)Nc1ccc([N+](=O)[O-])cc1`
Result: > 10 µM

Ask: Also need OC12COc3ccccc3C1Oc1ccccc1C2 (stereo not drawn) , thanks.
Result: > 100 µM

Ask: Similarly, `CCCCC(=O)Nc1ccc2cc(C(=O)OC)c(ON3C(=O)c4ccccc4C3=O)nc2n1` ?
Result: 88.2 µM

Ask: How about this compound: `O=C(OCc1ccccc1)N1CCN(/[N+]([O-])=N/Oc2ccc([N+](=O)[O-])cc2[N+](=O)[O-])CC1`
Result: 32.7 µM

Ask: Same lookup for `O=C(/C=C/c1ccc(Cl)cc1)Oc1ccc(/C=C2\CCCCC2=O)cc1` , please.
Result: > 100 µM

Ask: Now the compound COc1ccc(C2C3C(=O)C=CC(=O)C3[C@@H]2C)cc1OC (stereo partly drawn)
Result: > 100 µM

Ask: Same read-out for `N#Cc1c(-c2ccc([N+](=O)[O-])cc2)cc(-c2ccc(Nc3ccnc4cc(C(F)(F)F)ccc34)cc2)nc1N` ?
Result: 49.8 µM

Ask: Next compound up: `O=C(NNC(=S)Nc1ccccc1)c1ccccc1Nc1ccccc1C(=O)NNC(=S)Nc1ccccc1`
Result: > 100 µM
